# Test system: NCI-H1437
# test summary: relative viability (nuclei count vs DMSO), 5 days (fraction); higher = more cells survive
# experimental setup: first compound 0.02 µM
reported metric: relative viability

1) CC(=O)O[C@@]12CO[C@@H]1C[C@H](O)[C@@]1(C)C(=O)[C@H](O)C3=C(C)[C@@H](OC(=O)[C@H](O)[C@@H](NC(=O)OC(C)(C)C)c4ccccc4)C[C@@](O)([C@@H](OC(=O)c4ccccc4)[C@H]21)C3(C)C [Docetaxel] + NC(=O)Nc1cc(-c2cccc(F)c2)sc1C(=O)N[C@H]1CCCNC1 [AZD7762] (partner 0.2 µM) = 0.141
2) CC(=O)O[C@@]12CO[C@@H]1C[C@H](O)[C@@]1(C)C(=O)[C@H](O)C3=C(C)[C@@H](OC(=O)[C@H](O)[C@@H](NC(=O)OC(C)(C)C)c4ccccc4)C[C@@](O)([C@@H](OC(=O)c4ccccc4)[C@H]21)C3(C)C [Docetaxel] + CS(=O)(=O)N1CCN(Cc2cc3nc(-c4cccc5[nH]ncc45)nc(N4CCOCC4)c3s2)CC1 [Pictilisib] (partner 1 µM) = 0.0671
3) CC(=O)O[C@@]12CO[C@@H]1C[C@H](O)[C@@]1(C)C(=O)[C@H](O)C3=C(C)[C@@H](OC(=O)[C@H](O)[C@@H](NC(=O)OC(C)(C)C)c4ccccc4)C[C@@](O)([C@@H](OC(=O)c4ccccc4)[C@H]21)C3(C)C [Docetaxel] + N=C(N)NC(=N)NCCc1ccccc1 [Phenformin] (partner 250 µM) = 0.123
